- Test system: SNB-19
- Method Summary: NCI tumour cell line growth inhibition, 48 h
Active and inactive are the calls of the source. Rule as the data show it: active = GI50 up to about 1.1 µM and inactive = higher. Starred links: 1 amine or outer side, 2 acyl side, 3 side chain; linkers in the order of their positions; H or OH if unused. Positions of bridges follow the written chain, without caps; N, C: chain ends. Non-standard residues stand in square brackets, D forms with d. Residues, ends and D or L forms follow the SMILES beside them. *: point of attachment. X40 = CC[C@H](C)[C@@H](N[*:1])[C@@H](O)CC(=O)[*:2]; NMeY = CN[C@@H](Cc1ccc(O)cc1)C(=O)O; dNMeL = CN[C@H](CC(C)C)C(=O)O; Hiv = CC(C)[C@H](O)C(=O)O; Pyruvoyl = CC(=O)C(=O)*
Property: GI50; scope: individual molecules

The examples below pair each entry with its known result.
Molecule	Assay Target	GI50
COc1ccc(C)cc1Nc1nnc(-c2ccccc2N)s1	SNB-19	> 100 µM (inactive)
O=C(N/N=C/c1ccccc1)c1c(-c2cccnc2)cnc2ccccc12	SNB-19	> 100 µM (inactive)
COc1ccccc1/C=C1\S/C(=N/Nc2nc(C)c(C(C)=O)s2)NC1=O	SNB-19	51.2 µM (inactive)
Cn1cc(C=C(C#N)C#N)c(=O)n(C)c1=O	SNB-19	> 100 µM (inactive)
N#CC(C#N)=C/C=C/c1ccccc1[N+](=O)[O-]	SNB-19	> 10 µM (inactive)

Q) GI50 lookup needed for N#CC(C#N)=CNC(=S)Nc1ccc(S(=O)(=O)Nc2nccs2)cc1 , thanks.
A) > 100 µM (inactive)

Q) GI50 lookup needed for CO[C@H](C(=O)[C@@H](O)[C@@H](C)O)[C@@H]1Cc2cc3cc(OC4CC(OC5CC(O)C(O)C(C)O5)C(O)C(C)O4)c(C)c(O)c3c(O)c2C(=O)[C@H]1OC1CC(OC2CC(OC3CC(C)(O)C(O)C(C)O3)C(O)C(C)O2)C(O)C(C)O1 (some centres not stated) , thanks.
A) 0.125 µM (active)

Q) GI50 lookup needed for CCCCCCCCCCCCCCCCCCNC(=S)NC=C1C(=O)c2ccccc2C1=O , thanks.
A) 17.3 µM (inactive)

Q) GI50 lookup needed for COc1c(OC2OC(CO)C(O)C(O)C2O)cc2c(c1OC)-c1ccc(OC)c(=O)cc1[C@@H](NC(C)=O)CC2 (some centres not stated) , thanks.
A) > 100 µM (inactive)

Q) GI50 lookup needed for COC(=O)/C=C\C(C#N)(C#N)/N=C/c1ccsc1 , thanks.
A) 14.5 µM (inactive)

Q) GI50 lookup needed for CC[C@H](C)[C@H]1NC(=O)[C@@H](NC(=O)[C@@H](CC(C)C)N(C)C(=O)[C@@H]2CCCN2C(=O)C(C)=O)[C@@H](C)OC(=O)[C@H](Cc2ccc(OC)cc2)N(C)C(=O)[C@@H]2CCCN2C(=O)[C@H](CC(C)C)NC(=O)[C@H](C(C)C)OC(=O)C[C@@H]1O (Pyruvoyl-P[dNMeL]T[X40][Hiv]LP[NMeY](Me); ester 3-C) , thanks.
A) 0.00224 µM (active)

Q) GI50 lookup needed for O=C(N/N=C1/C(=O)c2c3ccccc3cc3cccc1c23)c1cccc(Cl)c1 , thanks.
A) 41.4 µM (inactive)

* * *

- Tested on: NCI-H522
- Method Summary: NCI tumour cell line growth inhibition, 48 h
The source made the active and inactive calls. Rule as the data show it: active = GI50 up to about 1.1 µM and inactive = higher.
Outcomes you can answer with include only these: label 1 = active, label 0 = inactive

Q) Could you check what this test reported for CCOc1ccc(NC(=O)CC2C(=O)Nc3ccccc3[S+]2[O-])cc1 (centres undefined) ?
A) label 0

Q) Could you check what this test reported for CC[C@@]1(O)C(=O)OCc2c1c(Cl)c1n(c2=O)Cc2cc3ccccc3nc2-1 ?
A) label 0

Q) Could you check what this test reported for O=C(OCCO)C1CC2CC1C1(C2)OCCO1 (centres undefined) ?
A) label 0

Q) Could you check what this test reported for C[C@@H]1C[C@H](O)[C@]2(O)O[C@@H]3C[C@@]4(C=O)[C@@H](CC=C5[C@@H]4CC[C@]4(C)[C@@H](C6=CC(=O)OC6)CC[C@]54O)C[C@H]3O[C@@H]2O1 ?
A) label 1
